# Species on record: Rattus norvegicus
# assayExplanation: Open TG-GATES - Regimen: Single
# Format: toxicity, organism-based, Sprague-Dawley
# Set-up: regimen Single, gender Male, age 6 weeks
# recordedConditions: in vivo, po, 0 mg/kg, 9 h, tissue Plasma, route gavage, dose level Control

- molecule: "CC(C)N(CCC(C(N)=O)(c1ccccc1)c1ccccn1)C(C)C (stereo not given) [DISOPYRAMIDE]"
  gamma-GTP, IU/L: 1.2
- molecule: "O=NN(CCCl)C(=O)NC1CCCCC1 [LOMUSTINE]"
  gamma-GTP, IU/L: 1.4
- molecule: "ClC(Cl)(Cl)Cl [CARBON TETRACHLORIDE]"
  gamma-GTP, IU/L: 1.2
- molecule: "CCC1(c2ccccc2)C(=O)NC(=O)NC1=O [PHENOBARBITAL]"
  gamma-GTP, IU/L: 1.2
- molecule: "OCCOCCN1CCN(C(c2ccccc2)c2ccc(Cl)cc2)CC1 (stereo not given) [HYDROXYZINE]"
  gamma-GTP, IU/L: 1
- molecule: "CN(C)CCC=C1c2ccccc2COc2ccccc21 [DOXEPIN]"
  gamma-GTP, IU/L: 1.2
- molecule: "CC[C@H]1[C@@H]2C[C@H]3[C@@H]4N(C)c5ccccc5[C@]45C[C@@H]([C@@H]2[C@H]5O)N3[C@@H]1O [AJMALINE]"
  gamma-GTP, IU/L: 0.8
- molecule: "CC1=C(CC(=O)O)c2cc(F)ccc2/C1=C\\c1ccc([S+](C)[O-])cc1 (stereo not given)"
  gamma-GTP, IU/L: 1
- molecule: "CCc1oc2ccccc2c1C(=O)c1cc(Br)c(O)c(Br)c1 [BENZBROMARONE]"
  gamma-GTP, IU/L: 1.2
- molecule: "CN(C)C(=N)N=C(N)N [METFORMIN]"
  gamma-GTP, IU/L: 1
